- System: SF-539
- ASSAY: NCI tumour cell line growth inhibition, 48 h
The source made the active and inactive calls. Rule as the data show it: active = GI50 up to about 1.1 µM and inactive = higher.
PARAMETER_MEASURED: GI50

MOLECULE	GI50
Nc1nc(N)c2ncn(Cc3ccccc3)c2n1	> 100 µM (inactive)
O=NN1C(c2ccccc2)CNC(=O)CC1c1ccccc1 (stereo not given)	35.4 µM (inactive)
O=C1C(=O)N(c2nccs2)C(=O)C(=O)C1c1nc2ccccc2s1	> 100 µM (inactive)
O=C(Cc1ccccc1)NN1C(=O)/C(=C\c2cccc(O)c2)S/C1=N\c1ccccc1	> 100 µM (inactive)

query: What value of GI50 has been recorded for this entry: CCCCCCCCCCCCCCCC1(OC)C[N+](C)(C)CCO1 (stereo not given)
result: 1.74 µM (inactive)

query: Reported GI50 for CC(=O)OCC1OC(n2c(-c3ccc(C)cc3)cc(-c3ccccc3)c(C#N)c2=S)C(OC(C)=O)C(OC(C)=O)C1OC(C)=O (stereo not given) : what is it?
result: > 100 µM (inactive)

query: // lookup GI50 for CC1=CCCC(OC(N)=O)C1 (stereo not given)
result: > 100 µM (inactive)

query: Fill in: GI50 of Cn1c(COC(=O)NC2CCCCC2)c(COC(=O)NC2CCCCC2)c2ccc3cc(C=O)ccc3c21 is ___
result: > 100 µM (inactive)

query: Which measured GI50 value corresponds to Nc1c(C(=O)Nc2ccccc2O)[n+]([O-])c2ccccc2[n+]1[O-] ?
result: 32.3 µM (inactive)

query: GI50 lookup needed for [O-][N+]1=[N+]([O-])[C@@H](c2ccccc2)[C@H]1c1ccccc1 , thanks.
result: 18.4 µM (inactive)

----------
- Tested on: NCI-H522
- ASSAY: NCI tumour cell line growth inhibition, 48 h
The source made the active and inactive calls. Cut-off read from the data, not from the text of the source: active = GI50 up to about 1.1 µM and inactive = higher.
Just give me one of these, please: active, inactive

query: Field: outcome | Entry: CCCS(=O)(=O)Nc1ccc(Nc2c3ccccc3nc3ccccc23)c(OC)c1
result: active

query: Short answer needed: outcome of this test for CC1=NN(C(=O)CC(=O)Nc2cccc(Cl)c2)C(=O)C1/N=N\c1ccc(S(=O)(=O)c2ccc(/N=N/C3C(=O)N(C(=O)CC(=O)Nc4cccc(Cl)c4)N=C3C)cc2)cc1 (configuration not stated) ?
result: inactive

query: What did the test return for CC(C)(C)CC(C)(C)N/C(N)=N/O ?
result: inactive

query: Test call for this compound, please: CCOP(=O)(CCC(O)CNc1nc(N)nc(Cl)c1/N=N/c1ccc(Cl)cc1)OCC (configuration not stated)
result: inactive

query: Dear colleague, could you share the recorded outcome for Cc1csc(NNC(=O)Nc2ccccc2)n1 when you have a moment?
result: inactive

----------
- System: HOP-62
- ASSAY: NCI tumour cell line growth inhibition, 48 h
Active and inactive are the calls of the source. Rule as the data show it: active = GI50 up to about 1.1 µM and inactive = higher.
Field 'call' accepts active, inactive

MOLECULE	ASSIGNED_CATEGORY
CC(C)C1=CC23CCC4C(C)(C(=O)O)CCCC4(C)C2CC1C1C(=O)N(c2ccccc2)C(=O)C13 (centres undefined)	inactive

query: Each molecule tested received a call. Report the one for O=c1c(C(c2ccccn2)c2c(O)oc3cc(O)ccc3c2=O)c(O)oc2cc(O)ccc12 .
result: inactive

query: State the result this test recorded for OC(CC(CC(O)(C(F)(F)Cl)C(F)(F)Cl)=NNc1ccccc1)(C(F)(F)Cl)C(F)(F)Cl .
result: inactive

query: State the result this test recorded for CC1(C)CCC[C@@]2(C)C1C[C@H](O)[C@@]1(C)O[C@@](C)([C@H](O)CO)CCC21 (some centres undefined) .
result: inactive

query: I'd appreciate the recorded outcome for COC(=O)/C(=N\NC(=O)c1ccccc1O)C(C#N)c1ccc(Cl)cc1 (centres undefined) from this test.
result: inactive

query: # outcome recorded in this test, key = O=C(Cc1ccccc1)NN1C(=O)/C(=C\c2cccc(O)c2)S/C1=N\c1ccccc1
result: inactive

----------
// reported GI50 for each item listed
- System: HCC 2998
- ASSAY: NCI tumour cell line growth inhibition, 48 h
The source made the active and inactive calls. Rule as the data show it: active = GI50 up to about 1.1 µM and inactive = higher.

Recorded GI50, per entry:
MOLECULE	GI50
O=[N+]([O-])c1cc(C2SCc3nc4ccccc4n32)ccc1Cl (stereo not given)	18.4 µM (inactive)
Cc1c(/N=N/c2ccccc2)c(-c2ccccc2)n(C2OC(CO)C(O)C(O)C2O)c(=S)c1C#N (stereo not given)	5.3 µM (inactive)
Cc1cc(O)c2c(=O)c3ccccc3[nH]c2c1	37.3 µM (inactive)
COC(=O)c1c(C(=O)OC)c(C(c2ccccc2)c2ccccc2)n(-c2ccccc2)c1Cl	> 10 µM (inactive)

Here's the next entry for you.
query: Given the entry COC(=O)CN1Cc2cc(C)cc(c2O)CN(CC(=O)OC)Cc2cc(C)cc(c2O)CN(CC(=O)OC)Cc2cc(C)cc(c2O)CN(CC(=O)OC)Cc2cc(C)cc(c2O)C1 , report its measured GI50.
result: 13.6 µM (inactive)

----------
- Test system: KM-20L2
- ASSAY: NCI tumour cell line growth inhibition, 48 h
Active and inactive are the calls of the source. No stated cut-off is given here; in the data, active = GI50 up to about 1.1 µM and inactive = higher.
PARAMETER_MEASURED: GI50

Some compounds with known GI50 results, for comparison:
COMPOUND	TARGET_DESC	GI50
CCOC(=O)C1C2CCC(C2)C1(CCl)C(=O)OCC (stereo unspecified)	KM-20L2	> 100 µM (inactive)
O=C(O)CCC(NC(=O)c1ccc(Nc2nc3ccccc3nc2-c2cccs2)cc1)C(=O)O (stereo unspecified)	KM-20L2	> 100 µM (inactive)
CS(=O)(=O)OCCN(CCOS(C)(=O)=O)c1ccc(/C=N/c2ccc3oc(=O)ccc3c2)cc1	KM-20L2	2.64 µM (inactive)
O=NN1C(c2ccccc2)CNC(=O)CC1c1ccccc1 (stereo unspecified)	KM-20L2	25.3 µM (inactive)

query: Requested read-out: GI50. Entry: O=C(O)CNS(=O)(=O)c1ccc(NC(=O)c2ccccc2[N+](=O)[O-])cc1
result: > 100 µM (inactive)

query: Entry CS(=O)(=O)OCCCCOS(C)(=O)=O has what GI50?
result: > 234 µM (inactive)

----------
- Tested on: SK-MEL-2
- ASSAY: NCI tumour cell line growth inhibition, 48 h
The source made the active and inactive calls. No stated cut-off is given here; in the data, active = GI50 up to about 1.1 µM and inactive = higher.
PARAMETER_MEASURED: GI50

COMPOUND	GI50
Cc1ccc(S(=O)(=O)Oc2coc(CO)cc2=O)cc1	20.3 µM (inactive)
Clc1cc2nn(C3CCCCO3)nc2cc1Cl (stereo not given)	> 100 µM (inactive)
CC(=O)OCC1OC(n2c(N)c(C#N)c(-c3ccccc3)c(C#N)c2=S)C(OC(C)=O)C(OC(C)=O)C1OC(C)=O (stereo not given)	> 58.9 µM (inactive)
COc1ccc(C2=NN(C(=N)S)C(c3ccccc3)C2)cc1 (stereo not given)	29.4 µM (inactive)
COC1C(=[N+]=[N-])C(=O)NC(=O)N1C1OC(COC(c2ccccc2)(c2ccccc2)c2ccccc2)C(O)C1O (stereo not given)	19.1 µM (inactive)
CC(=O)c1c(O)cc(O)c(-c2c(C)cc(O)c3c2C(=O)c2cccc(O)c2C3=O)c1O	15.9 µM (inactive)

query: Look up GI50 for this compound: CC(C)C(Sc1nc(-c2ccccc2)c(-c2ccccc2)[nH]1)C(=O)NNC(=S)Nc1ccccc1 (stereo not given)
result: 19.2 µM (inactive)

query: For Cc1csc(NNC(=O)Nc2ccccc2)n1 , what is its reported GI50?
result: > 100 µM (inactive)

query: Returns the measured GI50 for the input compound. Input: COc1cc(/C=C2\S/C(=N/Nc3nc(-c4ccc(Br)cc4)cs3)NC2=O)cc(OC)c1OC
result: 15.1 µM (inactive)

query: Entry O=[N+]([O-])c1ccc2c(c1)c(S(=O)(=O)O)cc1nonc12 has what GI50?
result: > 100 µM (inactive)

----------
- Tested on: TK-10
- ASSAY: NCI tumour cell line growth inhibition, 48 h
Activity calls are given as the source filed them. Rule as the data show it: active = GI50 up to about 1.1 µM and inactive = higher.
PARAMETER_MEASURED: GI50

Solved cases below.
COMPOUND	GI50
O=C(CSc1nnc(-c2ccc(/N=C\c3ccc(Cl)cc3)cc2)o1)Nc1cccc([N+](=O)[O-])c1	> 100 µM (inactive)
Brc1c(C#CCC2CCCCC2)ccc(C#CCC2CCCCC2)c1Br	> 100 µM (inactive)
O=C1N(c2ccccc2)C2(O)C(=O)c3ccccc3C2(O)N1c1ccccc1 (stereo not given)	> 100 µM (inactive)
N#Cc1nc(CCC(C(=O)O)N2C(=O)c3ccccc3C2=O)oc1N (stereo not given)	> 100 µM (inactive)

# evaluate next
query: Sample CCCC(=O)/C=C/S/C=C/C(=O)CCC — what was its GI50?
result: 2.51 µM (inactive)

----------
- Tested on: DMS-114
- ASSAY: NCI tumour cell line growth inhibition, 48 h
Calls of active or inactive are those of the source. No stated cut-off is given here; in the data, active = GI50 up to about 1.1 µM and inactive = higher.
Reported GI50 values for a set of compounds

Answered cases to consult:
COMPOUND	REPORTED_VALUE
C#CCN(N=O)C(=O)ON1C(=O)CCC1=O	> 100 µM (inactive)
COc1cccc(N2C(=O)/C(=C/c3ccc(N(CCC#N)CCC#N)cc3)N=C2c2cc([N+](=O)[O-])ccc2Cl)c1	> 100 µM (inactive)
NC(=S)N/N=C1/CN(c2ccc(Cl)c(Cl)c2)CC(=O)C1c1nc2ccccc2s1 (stereo not given)	51.8 µM (inactive)
O=c1[nH]c(=O)n(C2OC(COP(=O)(O)OP(=O)(O)OC3OC(CO)C(O)C(O)C3O)C(O)C2O)cc1F (stereo not given)	1.13 µM (inactive)
O=NN1C(c2ccccc2)CNC(=O)CC1c1ccccc1 (stereo not given)	22.7 µM (inactive)
Clc1ccc(C[P+]2(c3ccccc3)CCCCC2)cc1.[O-][Cl+3]([O-])([O-])[O-]	50.4 µM (inactive)

query: # GI50 lookup, item O=C1CCCCN1
result: > 1120 µM (inactive)

query: Recorded GI50 for COc1ccc(C[C@H](N)C(=O)N2C[C@H](CO)C[C@H](n3cnc4c(N(C)C)ncnc43)C2)cc1 , please?
result: > 100 µM (inactive)

query: What value of GI50 has been reported for the following compound? O=C(O)C1(C(=O)O)CC1
result: > 100 µM (inactive)

query: Give the measured GI50 of CC(CCC=O)CCOCc1ccccc1 (stereo not given) .
result: 61.2 µM (inactive)

From: ChEMBL document CHEMBL1201862
